- TEST_PROTOCOL: Plasma concentrations of ayahuasca compounds and metabolites after oral ayahuasca (LC/MS/MS)
- Type: in vivo, human
- STUDY_CONDITIONS: both sexes, human, in vivo, po, plasma, 16 volunteers, oral ayahuasca, sampling to 200 min; read-out: Cmax (mean ± sd)
RECORDED_ENDPOINT: Cmax (ng/mL)
Give just the number in ng/mL; leave the unit off.

Q) Which measured Cmax value corresponds to COc1ccc2c3c([nH]c2c1)C(C)=NCC3 [Harmaline] ?
A) 14.7

Q) Which Cmax is listed for Cc1[nH]ccc2c1[nH]c1cc(=O)ccc12 [Harmol] ?
A) 85

Q) Fill in: Cmax of CN(C)CCc1c[nH]c2ccccc12 [DMT, N,N-dimethyltryptamine] is ___
A) 25.4

Q) Need Cmax, item COc1ccc2c(c1)[nH]c1c(C)nccc12 [Harmine]
A) 110

Q) Entry CC1=NCCc2c1[nH]c1cc(O)ccc21 [Harmalol] : reported Cmax = ?
A) 17.2

Q) Query: Cmax; subject: CNCCc1c[nH]c2ccccc12 [NMT, N‐methyltryptamine]
A) 3.1
